Origin of values: the METLIN SMRT retention time set (Domingo-Almenara et al. 2019)

This section presents compounds with their documented RP-LC retention time values.
Test: gradient 5% acetonitrile 3 min, to 50% in 2 min, to 85% in 15 min, held 3 min, 100 µL/min
Conditions: column: Zorbax Extend-C18 2.1 x 50 mm; eluents: water / acetonitrile, 0.1% formic acid
Value kind: RP-LC retention time

>>> print(df.to_string())
                                    compound  value_reported
 0  CN(C1=NC(=O)/C(=C/c2cc(Cl)ccc2OCC(=O)O)S1)c1ccc(O)cc1           669 s
 1     CCOC(=O)c1cnc2nc(C)ccc2c1Nc1cccc(F)c1           689 s
 2  COCCNc1nc(-c2ccc([N+](=O)[O-])cc2)nc2ccccc12           696 s
 3  O=C(CN1C(=O)NC2(CCCCC2)C1=O)Nc1ccc2c(c1)OCO2           709 s
 4  CS(=O)(=O)Nc1cccc(C2=NN(S(C)(=O)=O)C(c3cccc([N+](=O)[O-])c3)C2)c1 (stereo not drawn)           740 s
 5  Cc1cc(C)cc(S(=O)(=O)NCc2c(-c3ccccc3)nc3sc(C)nn23)c1           921 s
 6  CCN1C(=O)C2(CCN(C(=O)NCCC(C)C)CC2)c2ccccc21           854 s
 7  Cc1cc(Nc2nc(C(=O)NCCN3CCOCC3)cc3occc23)ccc1Br           621 s
 8  CCOC(=O)CSc1nnc(-c2nnc(SCC(=O)OCC)n2CC)n1CC           758 s
 9  COC(=O)c1ccc2c(=O)n(Cc3ccc(F)cc3)c(N3CCN(c4ccccn4)CC3)nc2c1           772 s
10       CN1CCC(Oc2ncccc2NS(=O)(=O)N(C)C)CC1           575 s
11  CCC1Oc2ccc(S(=O)(=O)N3CCC(C(=O)Nc4cc(C)ccc4C)CC3)cc2NC1=O (stereo not drawn)           837 s
12  CN(CCCNC(=O)C1CCc2nc(N3CCOCC3)ncc2C1)c1ccccc1 (stereo not drawn)           602 s
13  Cc1ccc(N2CC(c3noc(-c4cccn4C)n3)CC2=O)cc1 (stereo not drawn)           611 s
14  COC(=O)c1c(NCCc2c[nH]c3ccccc23)c2ccccc2[nH]c1=O           744 s
15  Cc1sc(NC(=O)COc2ccc(Cl)cc2)nc1-c1ccc2c(c1)N(C)C(=O)CO2          1040 s
16             CCNC(=O)c1c2c(nc3ccccc13)CCC2           573 s
17  Cc1ccc(-c2nc3ccc(C)cn3c2NC(=O)c2ccc(Cl)cc2)cc1           763 s
18  O=C(NC1CCCCCC1)c1nc(Nc2ccccc2)c2ccccc2n1           917 s
19  CCC1CN2C=NC(N3CCN(C(=O)Nc4ccc(OC)cc4C)CC3)=CC2=N1 (stereo not drawn)           612 s
20  O=C(CCc1nc(CSc2nnc(-c3ccccc3)o2)no1)Nc1ccccc1           863 s
21  O=C(Cn1nc2c(cc1=O)CCCC2)Nc1nc(-c2ccc3c(c2)OCO3)cs1           851 s
22  O=C(NCCc1c[nH]c2ccc(Cl)cc12)c1ccc(-n2nnc3cccnc32)cc1           922 s
23  Cc1nc2cc(-c3noc(-c4ncoc4-c4ccccc4)n3)ccc2o1          1020 s
24  CC(C)(C)Cn1c(N)nc2ccc(-c3[nH]c(C(C)(C)C)nc3-c3ccc(F)cc3)nc21           631 s
25  O=C(N/N=C/c1ccc([N+](=O)[O-])o1)c1ccc(O)cc1           675 s
26  COc1ccc(N2CC(C(=O)N3CCC(C(=O)Nc4nc(C)cs4)CC3)CC2=O)cc1 (stereo not drawn)           680 s
27  Cc1cc2c(cc3n2CC(C)(C(=O)NC2CCCCC2)N(Cc2cccnc2)C3=O)o1 (stereo not drawn)           658 s
28  CS(=O)(=O)N1CCC(C(=O)Nc2cccc(F)c2)Oc2ccc(Cl)cc21 (stereo not drawn)           982 s
29  O=C(c1ccc(-c2csc(C3CC3)n2)cc1)N1CCN(c2ncccn2)CC1           912 s
30  CCN(CC)C(=O)CN1C(=O)C2(NC(C)C3C(=O)N(Cc4ccccc4)C(=O)C32)c2ccccc21 (stereo not drawn)           857 s
31  CC(C)(C)n1nnnc1C1CC2(CCOCC2)C(=O)N1Cc1ccccc1F (stereo not drawn)           756 s
32  Cc1ccc(CNC(=O)N2c3ccccc3CC2c2nc(C3CC3)no2)cc1 (stereo not drawn)           972 s
33  Fc1ccc(-c2nnc(-c3nc(NC4CCCCC4)c4ccccc4n3)o2)cc1          1110 s
34  CC(C)CC(=O)N1CC(c2nc(-c3ccccc3)no2)C2(CCOCC2)C1 (stereo not drawn)           896 s
35  Cc1ccc(-c2nc(-c3ccc(NS(=O)(=O)c4cccs4)cc3)no2)cc1F          1180 s
36  Cc1ccc(CN2CCN(C(=O)C3CCc4nc(N5CCOCC5)ncc4C3)CC2)cc1C (stereo not drawn)           623 s
37         COCc1c(C(=O)O)nnn1-c1ccc(C)c(F)c1           741 s
